Cited source for all entries: the supplement of paper PMC7394473

test system: U2OS; assay: drug GRADE (percent of response due to cell death) (% (0-100)); higher = more death-driven response; conditions: 72 h
Measured quantity: drug GRADE

Compound | Measured quantity | Recorded value
Nc1ccc(-c2ccc3ncc4ccc(=O)n(-c5cccc(C(F)(F)F)c5)c4c3c2)cn1 | drug GRADE | 4.29
COC1CCN(C(=O)c2cc(Cc3n[nH]c(=O)c4ccccc34)ccc2F)CC1 | drug GRADE | 13.6
COCC[n+]1c2c(n(Cc3cnccn3)c1C)C(=O)c1ccccc1C2=O | drug GRADE | 44.1
COc1cc([C@@H]2c3cc4c(cc3[C@@H](O[C@@H]3O[C@@H]5CO[C@@H](C)O[C@H]5[C@H](O)[C@H]3O)[C@H]3COC(=O)[C@H]23)OCO4)cc(OC)c1O [Etoposide] | drug GRADE | 8.6
